Assign fold increase in affinity compared to wild-type G6.31 to each entry below.
# Assay target: T1, human VEGF (hVEGF) (human, UniProt P15692 181-395)
# T1 construct: also called VEGF-A
# T1 sequence: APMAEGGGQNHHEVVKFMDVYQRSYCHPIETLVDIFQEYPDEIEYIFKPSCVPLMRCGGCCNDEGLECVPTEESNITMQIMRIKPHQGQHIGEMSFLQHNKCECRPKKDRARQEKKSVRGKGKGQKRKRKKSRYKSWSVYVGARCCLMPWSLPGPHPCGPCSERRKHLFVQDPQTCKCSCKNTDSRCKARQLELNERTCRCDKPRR
# Experiment summary: SPR

{"Binder": "G6.31 LC-L73G (Fab, V domains shown, Fab) VH: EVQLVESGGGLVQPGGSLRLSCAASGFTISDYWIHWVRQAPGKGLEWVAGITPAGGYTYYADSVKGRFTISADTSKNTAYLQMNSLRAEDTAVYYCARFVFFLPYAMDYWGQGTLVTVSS VL: DIQMTQSPSSLSASVGDRVTITCRASQDVSTAVAWYQQKPGKAPKLLIYSASFLYSGVPSRFSGSGSGTDFTGTISSLQPEDFATYYCQQGYGNPFTFGQGTKVEIK", "Observed result": "~1.6 fold"}
{"Binder": "G6.31 HC-T57E (Fab, name in Kabat numbering, V domains shown, Fab) VH: EVQLVESGGGLVQPGGSLRLSCAASGFTISDYWIHWVRQAPGKGLEWVAGITPAGGYEYYADSVKGRFTISADTSKNTAYLQMNSLRAEDTAVYYCARFVFFLPYAMDYWGQGTLVTVSS VL: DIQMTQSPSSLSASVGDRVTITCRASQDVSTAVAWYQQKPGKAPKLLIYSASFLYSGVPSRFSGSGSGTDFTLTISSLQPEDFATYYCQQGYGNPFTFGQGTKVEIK", "Observed result": "8 to 9 fold"}

Q: Specify measured fold increase in affinity compared to wild-type G6.31 for G6.31 HC-N82aR (Fab, name in Kabat numbering, V domains shown, Fab) VH: EVQLVESGGGLVQPGGSLRLSCAASGFTISDYWIHWVRQAPGKGLEWVAGITPAGGYTYYADSVKGRFTISADTSKNTAYLQMRSLRAEDTAVYYCARFVFFLPYAMDYWGQGTLVTVSS VL: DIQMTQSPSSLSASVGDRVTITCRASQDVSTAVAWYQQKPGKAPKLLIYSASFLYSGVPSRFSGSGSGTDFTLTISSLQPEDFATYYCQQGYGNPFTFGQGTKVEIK .
A: ~6.6 fold
